Assign Kd to each entry below.
test system: HLA-B*54:01
assay procedure: IEDB peptide-MHC binding, purified MHC/competitive/radioactivity; filed as Kd, often an IC50 or EC50 that approximates it; bounds were set here for any values at or beyond the usual limits of such assays
experimental setup: source organism: SARS coronavirus Tor2
Answers are plain numbers, in nM.

>  <chain>
MPASWVMRI

>  <quantitative readout>
32

$$$$
>  <chain>
APHGVVFLHV

>  <quantitative readout>
288

$$$$

Data request: Indicate its recorded Kd; the sequence in question is KPPISFPLCA
Data returned: 3870

====

test system: HLA-A*26:01
assay procedure: IEDB peptide-MHC binding, purified MHC/competitive/fluorescence; filed as Kd, often an IC50 or EC50 that approximates it; bounds were set here for any values at or beyond the usual limits of such assays
experimental setup: source organism: Reston ebolavirus - Reston (1989)
pKd: −log10 of the molar value.
measurement name: pKd

Data request: Return value of pKd for input GRYNLVPPK , no commentary.
Data returned: ≤ 4.70
